system: HEK-293T; experiment: Multiplex assay against HEK293T; type: toxicity, cell-based; conditions: human, 24 h, 10 µM, compound concentration 10 uM, replicate 2
Note to self: values exactly at 70% are True. So Population Pyknosed Nuclei (%) at or above 70% is True, below is False.

Answered examples (3):
INSERT INTO measurements (molecule, systemundertest, assignedcategory) VALUES
  ('COc1ncc(-c2ccc3nccc(-c4ccnnc4)c3c2)cc1NS(=O)(=O)c1ccc(F)cc1F', 'HEK-293T', 'True'),
  ('CC[C@H](C)C(=O)O[C@H]1C[C@@H](C)C=C2C=C[C@H](C)[C@H](CC[C@@H]3C[C@@H](O)CC(=O)O3)[C@H]21', 'HEK-293T', 'False'),
  ('COc1cccc([C@@H](C)NCCCc2ccccc2Cl)c1.Cl [TECALCET HYDROCHLORIDE]', 'HEK-293T', 'False');

Q) Has `CN(C)C(=O)/C(C#N)=C/c1ccc(-c2nc3cnc4[nH]ccc4c3n2C2CCCCC2)o1` a recorded Population Pyknosed Nuclei (%) greater than or equal to 70%?
A) False

Q) Has CC(C)NCC(O)COc1ccc(CCOCC2CC2)cc1.Cl (stereo not given) [BETAXOLOL HYDROCHLORIDE] a recorded Population Pyknosed Nuclei (%) greater than or equal to 70%?
A) False

Q) Has `c1cn2cc(-c3ccc4cn[nH]c4c3)nc(Nc3ccc(N4CCOCC4)cc3)c2n1` a recorded Population Pyknosed Nuclei (%) greater than or equal to 70%?
A) False

====

test system: U2OS; test: Multiplex assay against U2OS; format: toxicity, cell-based; settings: human, 48 h, 10 µM, compound concentration 10 uM, replicate 2
Measured Population Tubulin-Different-Phenotype (%) accompanies every entry in the list below.
Write the answer as a number in %, unit excluded.

Below are worked cases with known answers.
INSERT INTO assay_data (compound, unitstext, reportedvalue) VALUES
  ('C=CC(=O)Nc1cccc(C(=O)Nc2ccc(Nc3cc(-c4[nH]c(SC)nc4C)ccn3)cc2)c1', '%', 10),
  ('Cc1cc(C)cc(-c2cnc3cc(Cl)c(-c4cccc(O)c4)cc3c2OCCCN)c1', '%', 100),
  ('c1cn2cc(-c3ccc4cn[nH]c4c3)nc(Nc3ccc(N4CCOCC4)cc3)c2n1', '%', 20),
  ('CNc1nc(NCc2ccc(NS(C)(=O)=O)cc2Cl)cc(-c2ccccn2)n1', '%', 23),
  ('Cc1nc(-c2ccc(-c3ccc(C(=O)N4CCc5cc6c(cc54)C4(CCN(C)CC4)CO6)cc3)c(C)c2)no1', '%', 100),
  ('CC[C@H](C)C(=O)O[C@H]1C[C@@H](C)C=C2C=C[C@H](C)[C@H](CC[C@@H]3C[C@@H](O)CC(=O)O3)[C@H]21', '%', 21);

// moving on: another record for Population Tubulin-Different-Phenotype (%)
Q) Param item = COc1cccc([C@@H](C)NCCCc2ccccc2Cl)c1.Cl [TECALCET HYDROCHLORIDE] ; retrieve measured Population Tubulin-Different-Phenotype (%).
A) 73

====

tested on: HEK-293T; assay: Multiplex assay against HEK293T; assay type: toxicity, cell-based; details: human, 24 h, 1 µM, compound concentration 1 uM, replicate 1
measuredProperty: Population Mitochondria Different-Phenotype (%)
Write the answer as a number in %, unit excluded.

INSERT INTO assay_data (compound, reportedvalue) VALUES
  ('Cc1[nH]c(/C=C2\C(=O)Nc3ccc(S(=O)(=O)N(C)c4cccc(Cl)c4)cc32)c(C)c1C(=O)N1CCN(C)CC1', 85),
  ('CCN(CC)CCCCNc1ncc2cc(-c3cc(OC)cc(OC)c3)c(NC(=O)NC(C)(C)C)nc2n1', 15),
  ('C[C@@]1(C(=O)Nc2ccc(F)nc2)CCCN1c1nc(Nc2cc(C3CC3)n[nH]2)c2cccn2n1', 32);

// moving on: another record for Population Mitochondria Different-Phenotype (%)
Q) # get_value(readout= Population Mitochondria Different-Phenotype (%), system= HEK-293T) for COc1cccc([C@@H](C)NCCCc2ccccc2Cl)c1.Cl [TECALCET HYDROCHLORIDE]
A) 73

====

Measured Population Mitochondria Different-Phenotype (%) accompanies every entry in the list below.
system: U2OS; test: Multiplex assay against U2OS; format: toxicity, cell-based; settings: human, 48 h, 1 µM, compound concentration 1 uM, replicate 2
Write the answer as a number in %, unit excluded.

INSERT INTO measurements (compound, reportedvalue) VALUES
  ('CN1CCC[C@@H]1CCO[C@](C)(c1ccccc1)c1ccc(Cl)cc1.O=C(O)/C=C/C(=O)O [CLEMASTINE FUMARATE]', 13),
  ('Cc1nc(-c2ccc(-c3ccc(C(=O)N4CCc5cc6c(cc54)C4(CCN(C)CC4)CO6)cc3)c(C)c2)no1 [SB-224289]', 14),
  ('C=CC(=O)Nc1cccc(C(=O)Nc2ccc(Nc3cc(-c4[nH]c(SC)nc4C)ccn3)cc2)c1', 13);

// moving on: another record for Population Mitochondria Different-Phenotype (%)
Q) # get_value(readout= Population Mitochondria Different-Phenotype (%), system= U2OS) for `Cc1[nH]c(/C=C2\C(=O)Nc3ccc(S(=O)(=O)N(C)c4cccc(Cl)c4)cc32)c(C)c1C(=O)N1CCN(C)CC1`
A) 30

====

system: Fibroblast; test: Incucyte cell viability with human fibroblast; format: toxicity, cell-based; details: 0 h, 10 µM, compound concentration 10 uM, replicate number 2, timepoint 0 hours; note: filed as whole numbers so only -1 and 0 and 1 occur
measuredProperty: Growth Rate
Please state the value as a number alone, without comment.

Below are worked cases with known answers.
INSERT INTO measurements (compound, measuredproperty, reportedvalue) VALUES
  ('Cc1cc(Nc2nccc(C)n2)cc(-c2cnc([C@@]3(O)CC[C@H](C(=O)O)C(C)(C)C3)s2)c1', 'Growth Rate', 1),
  ('COc1ncc(-c2ccc3nccc(-c4ccnnc4)c3c2)cc1NS(=O)(=O)c1ccc(F)cc1F', 'Growth Rate', 0),
  ('O=C(O)C[C@H]1CCc2c1[nH]c1ccc(OCc3ccc(C4CCCC4)c(C(F)(F)F)c3)cc21', 'Growth Rate', 1),
  ('O=c1nc(-c2ccccn2)sc2ccccc12', 'Growth Rate', 0),
  ('Nc1c(C(=O)NCc2ccc(C(=O)NCCCC3CCCCC3)cc2)cnn1-c1ccccc1', 'Growth Rate', 1);

Q) Param item = `Cc1nc(C2CCN(C(=O)c3ccc(OC(F)(F)F)cc3N)CC2)c2ncc(N3CCN(C)CC3)cc2n1` ; retrieve measured Growth Rate.
A) 0

Q) Param item = `Cc1cccc(-c2cnc3occ(-c4ccc(C(=O)O)c(C5CCCC5)c4)c3c2)c1` ; retrieve measured Growth Rate.
A) 1

Q) Param item = Cn1c(-c2csc(C3CCN(CC4=NC5N=CC=CC5N4)CC3)n2)nc2ccccc21 (stereo not drawn) ; retrieve measured Growth Rate.
A) 1

====

test system: HEK-293T; test: Multiplex assay against HEK293T; type: toxicity, cell-based; conditions: human, 48 h, 10 µM, compound concentration 10 uM, replicate 1
Measured Population Mitochondria Different-Phenotype (%) accompanies every entry in the list below.
Write the answer as a number in %, unit excluded.

Below are worked cases with known answers.
INSERT INTO results (molecule, reportedvalue) VALUES
  ('NC(=O)Nc1cc(-c2cccc(F)c2)sc1C(=O)N[C@H]1CCCNC1', 100),
  ('CN(C)C(=O)N[C@H]1CC[C@H](CCN2CCN(c3cccc(Cl)c3Cl)CC2)CC1.Cl [CARIPRAZINE HYDROCHLORIDE]', 99),
  ('CC(C)NCC(O)COc1ccc(CCOCC2CC2)cc1.Cl (stereo unspecified) [BETAXOLOL HYDROCHLORIDE]', 84),
  ('Cc1cc(C)cc(-c2cnc3cc(Cl)c(-c4cccc(O)c4)cc3c2OCCCN)c1', 50),
  ('COc1cc(-n2cnc3cc(-c4ccc(Cl)cc4)sc3c2=O)ccc1OCCN1CCCC1', 100),
  ('Cc1[nH]c(/C=C2\C(=O)Nc3ccc(S(=O)(=O)N(C)c4cccc(Cl)c4)cc32)c(C)c1C(=O)N1CCN(C)CC1', 100),
  ('COc1cc2nccc(Oc3ccc(NC(=O)Nc4cc(C)on4)c(Cl)c3)c2cc1OC.O', 96),
  ('C=CC(=O)Nc1cccc(C(=O)Nc2ccc(Nc3cc(-c4[nH]c(SC)nc4C)ccn3)cc2)c1', 54),
  ('CN1CCCC(n2nc(Cc3ccc(Cl)cc3)c3ccccc3c2=O)CC1.Cl (stereo unspecified) [AZELASTINE HYDROCHLORIDE]', 100),
  ('CC[C@H](C)C(=O)O[C@H]1C[C@@H](C)C=C2C=C[C@H](C)[C@H](CC[C@@H]3C[C@@H](O)CC(=O)O3)[C@H]21', 46);

Q) Param item = O=C1NCN(c2ccccc2)C12CCN(CCCOc1ccc(F)cc1)CC2 [SPIRAMIDE] ; retrieve measured Population Mitochondria Different-Phenotype (%).
A) 98

Q) Param item = `CCn1c(=O)c(-c2ccc(Cl)cc2Cl)cc2cnc(Nc3ccc(N4CCNCC4)c(F)c3)nc21` ; retrieve measured Population Mitochondria Different-Phenotype (%).
A) 25

Q) Param item = `CN1CCN(c2ccc(OC(F)(F)F)c(Nc3ncc4c(n3)-c3c(c(C(N)=O)nn3CCO)CC4)c2)CC1` ; retrieve measured Population Mitochondria Different-Phenotype (%).
A) 95

Q) Param item = `CN(C)CC#Cc1ccc(OCCCc2sc(N3CCc4cccc(C(=O)Nc5nc6ccccc6s5)c4C3)nc2C(=O)O)c(F)c1` ; retrieve measured Population Mitochondria Different-Phenotype (%).
A) 13

Q) Param item = `C=CC(=O)Nc1ccc2ncnc(Nc3ccc(OCc4cccc(F)c4)c(Cl)c3)c2c1.Cc1ccc(S(=O)(=O)O)cc1` ; retrieve measured Population Mitochondria Different-Phenotype (%).
A) 46

Q) Param item = CN1CCC[C@@H]1CCO[C@](C)(c1ccccc1)c1ccc(Cl)cc1.O=C(O)/C=C/C(=O)O [CLEMASTINE FUMARATE] ; retrieve measured Population Mitochondria Different-Phenotype (%).
A) 100

Where do the numbers come from? From ChEMBL document CHEMBL4689842.
